- Tested on: H3122 cells
- test protocol: CCK-8 cell proliferation detection, H3122 cells
- Assay type: cell-based
- test context: Table 4, configurations of MXY-193
- Description: WST-8 (chemical name: 2-(2-methoxy-4-nitrophenyl)-3-(4-nitrophenyl)-5-(2,4-disulfo benzene)-2H-tetrazolium monosodium), which is reduced to a highly water-soluble yellow formazan product (Formazan dye) by the dehydrogenase in cells under the action of the electron carrier dimethyl 1-methoxy-5-methylphenazinium sulfate (1-Methoxy PMS). […] Therefore, the survival rate of cells can be calculated indirectly by measuring the absorbance at 450 nm. […]
pIC50: −log10 of the molar value.
property label: pIC50

If you can, please state the reported pIC50 value of CC(Oc1cc(-c2cnn(C3CCOCC3)c2)cnc1N)c1cc(F)ccc1Cl (single isomer, unassigned) .
< 4.00
